test system: Blumeria graminis f. sp. tritici; experiment: Test I: wheat powdery mildew, preventive spray on wheat seedlings, visual disease rating; conditions: wheat powdery mildew; 100 = 100% disease control, 0 = no disease control relative to the controls

chemicalSmiles: Cc1nn(C)c(Nc2ccc(F)cc2F)c1-c1ccccc1Cl
testedTarget: Blumeria graminis f. sp. tritici
unitAbbrev: %
Test I rating (disease control): 100
//
chemicalSmiles: Cc1nn(C)c(Nc2c(F)cc(F)cc2F)c1-c1c(F)cccc1F
testedTarget: Blumeria graminis f. sp. tritici
unitAbbrev: %
Test I rating (disease control): 100
//
chemicalSmiles: Cc1nn(C)c(Nc2ccc(F)cc2Br)c1-c1c(Cl)cccc1Cl
testedTarget: Blumeria graminis f. sp. tritici
unitAbbrev: %
Test I rating (disease control): 100
//
chemicalSmiles: Cc1nn(C)c(Nc2c(F)cc(Cl)cc2Cl)c1-c1ccc(F)cc1F
testedTarget: Blumeria graminis f. sp. tritici
unitAbbrev: %
Test I rating (disease control): 100
//
chemicalSmiles: COc1cc(F)c(Nc2c(-c3c(F)cccc3F)c(C)nn2C)c(F)c1
testedTarget: Blumeria graminis f. sp. tritici
unitAbbrev: %
Test I rating (disease control): 98
//
chemicalSmiles: Cc1nn(C)c(Nc2c(F)cc(F)cc2Cl)c1-c1c(F)cccc1Cl
testedTarget: Blumeria graminis f. sp. tritici
unitAbbrev: %
Test I rating (disease control): 100
//
chemicalSmiles: Cc1nn(C)c(Oc2ccc(C#N)cc2Cl)c1-c1ccc(F)cc1Br
testedTarget: Blumeria graminis f. sp. tritici
unitAbbrev: %
Test I rating (disease control): 99
//
chemicalSmiles: Cc1nn(C)c(Nc2c(F)cc(F)cc2F)c1-c1ccccc1Br
testedTarget: Blumeria graminis f. sp. tritici
unitAbbrev: %
Test I rating (disease control): 100
//
chemicalSmiles: Cc1nn(C)c(Nc2ccc(C#N)cc2F)c1-c1ccc(F)cc1F
testedTarget: Blumeria graminis f. sp. tritici
unitAbbrev: %
Test I rating (disease control): 100
//
chemicalSmiles: Cc1nn(C)c(Nc2ccc(C#N)cc2F)c1-c1c(F)cccc1F
testedTarget: Blumeria graminis f. sp. tritici
unitAbbrev: %
Test I rating (disease control): 98
//
chemicalSmiles: Cc1nn(C)c(Nc2c(F)cc(F)cc2F)c1-c1c(F)cccc1Cl
testedTarget: Blumeria graminis f. sp. tritici
unitAbbrev: %
Test I rating (disease control): 99

* * *

In this section we review reported Test H rating (disease control) values for a set of molecules.
tested on: Puccinia recondita f. sp. tritici; test: Test H: wheat leaf rust, preventive spray on wheat seedlings, visual disease rating; conditions: wheat leaf rust, sprayed the day before inoculation; 100 = 100% disease control, 0 = no disease control
parameterMeasured: Test H rating (disease control) (%)

chemicalSmiles: COc1cc(F)c(Nc2c(-c3c(F)cc(F)cc3F)c(C)nn2C)c(F)c1
numericResult: 89
--
chemicalSmiles: Cc1nn(C)c(Nc2ccc(F)cc2Cl)c1-c1ccc(C#N)cc1Cl
numericResult: 100
--
chemicalSmiles: Cc1nn(C)c(Nc2ccc(F)cc2Br)c1-c1c(Cl)cccc1Cl
numericResult: 91
--
chemicalSmiles: COc1ccc(Nc2c(-c3ccc(F)cc3Br)c(C)nn2C)c(Cl)c1
numericResult: 99
--
chemicalSmiles: COc1ccc(-c2c(C)nn(C)c2Oc2c(F)cc(C#N)cc2F)c(Cl)c1
numericResult: 100
--
chemicalSmiles: COc1ccc(-c2c(C)nn(C)c2Nc2c(F)cccc2F)c(Cl)c1
numericResult: 100
--
chemicalSmiles: Cc1nn(C)c(Nc2ccc(F)cc2Cl)c1-c1ccc(F)cc1Br
numericResult: 100
--
chemicalSmiles: Cc1nn(C)c(Nc2ccc(C#N)cc2F)c1-c1ccc(F)cc1F
numericResult: 80
--
chemicalSmiles: Cc1nn(C)c(Nc2ccc(Br)cc2Cl)c1-c1ccc(F)cc1F
numericResult: 92
--
chemicalSmiles: COc1ccc(Nc2c(-c3c(F)cccc3F)c(C)nn2C)c(F)c1
numericResult: 68
--
chemicalSmiles: Cc1nn(C)c(Nc2ccc(F)cc2F)c1-c1ccc(C#N)cc1Cl
numericResult: 100
--
chemicalSmiles: Cc1nn(C)c(Nc2c(Cl)cc(Cl)cc2Cl)c1-c1ccc(F)cc1Cl
numericResult: 98
--
chemicalSmiles: Cc1nn(C)c(Nc2ccccc2F)c1-c1ccc(F)cc1Cl
numericResult: 99
--
chemicalSmiles: Cc1nn(C)c(Oc2c(F)cc(C#N)cc2F)c1-c1ccccc1Br
numericResult: 99
--
chemicalSmiles: Cc1nn(C)c(Nc2c(F)cc(F)cc2F)c1-c1ccccc1Br
numericResult: 99
--
chemicalSmiles: Cc1nn(C)c(Nc2c(Cl)cc(Cl)cc2Cl)c1-c1ccc(F)cc1F
numericResult: 99
--
chemicalSmiles: Cc1nn(C)c(Nc2ccc(F)cc2F)c1-c1ccc(F)cc1Cl
numericResult: 100
--
chemicalSmiles: Cc1nn(C)c(Nc2c(F)cc(Cl)cc2Cl)c1-c1ccc(F)cc1F
numericResult: 100
--
chemicalSmiles: CCOc1cc(F)c(-c2c(C)nn(C)c2Nc2ccc(F)cc2F)c(F)c1
numericResult: 99
--
chemicalSmiles: COc1ccc(-c2c(C)nn(C)c2Nc2ccc(F)cc2F)c(Cl)c1
numericResult: 100
--
chemicalSmiles: Cc1nn(C)c(Nc2ccc(Cl)cc2F)c1-c1ccc(F)cc1F
numericResult: 99
--
chemicalSmiles: Cc1nn(C)c(Nc2ccc(Cl)cc2F)c1-c1c(F)cccc1F
numericResult: 100
--
chemicalSmiles: Cc1nn(C)c(Oc2c(F)cc(C#N)cc2F)c1-c1ccccc1F
numericResult: 99

* * *

system: Botrytis cinerea; assay: Test A: tomato Botrytis, preventive spray on tomato seedlings, visual disease rating; details: tomato Botrytis; 100 = 100% disease control, 0 = no disease control relative to the controls
In this section we review reported Test A rating (disease control) values for a set of compounds.

compound: Cc1nn(C)c(Nc2ccc(F)cc2I)c1-c1ccc(F)cc1F
unitAbbrev: %
Test A rating (disease control): 100
--
compound: Cc1nn(C)c(Nc2c(F)cc(Cl)cc2Cl)c1-c1ccc(F)cc1F
unitAbbrev: %
Test A rating (disease control): 100
--
compound: COc1ccc(Nc2c(-c3ccc(F)cc3Br)c(C)nn2C)c(Cl)c1
unitAbbrev: %
Test A rating (disease control): 99
--
compound: COc1cc(F)c(Nc2c(-c3c(F)cc(C#N)cc3F)c(C)nn2C)c(F)c1
unitAbbrev: %
Test A rating (disease control): 99
--
compound: COc1cc(F)c(-c2c(C)nn(C)c2C(O)c2ccc(F)cc2F)c(F)c1 (centres unmarked)
unitAbbrev: %
Test A rating (disease control): 100

* * *

In this section we review reported Test H rating (disease control) values for a set of molecules.
tested on: Puccinia recondita f. sp. tritici; experiment: Test H: wheat leaf rust, preventive spray on wheat seedlings, visual disease rating; settings: wheat leaf rust, sprayed the day before inoculation; 100 = 100% disease control, 0 = no disease control
parameterMeasured: Test H rating (disease control) (%)

molecule: COc1ccc(-c2c(C)nn(C)c2Nc2ccc(Cl)cc2Cl)c(Cl)c1
numericResult: 99
--
molecule: Cc1nn(C)c(Nc2ccc(Cl)cc2Cl)c1-c1c(Cl)cccc1Cl
numericResult: 96
--
molecule: Cc1nn(C)c(Nc2ccc(C#N)cc2F)c1-c1c(F)cccc1F
numericResult: 98
--
molecule: Cc1nn(C)c(Oc2ccc(Cl)cc2Cl)c1-c1c(F)cc(F)cc1F
numericResult: 99
--
molecule: CCOc1ccc(Nc2c(-c3ccc(F)cc3Cl)c(C)nn2C)c(Cl)c1
numericResult: 97
--
molecule: Cc1nn(C)c(Nc2c(F)cc(F)cc2Cl)c1-c1c(F)cccc1Cl
numericResult: 100
--
molecule: Cc1nn(C)c(Nc2ccc(F)cc2I)c1-c1ccc(F)cc1F
numericResult: 100
--
molecule: Cc1nn(C)c(Oc2ccc(C#N)cc2Cl)c1-c1ccc(F)cc1Br
numericResult: 99
--
molecule: COc1cc(F)c(-c2c(C)nn(C)c2C(O)c2ccc(F)cc2F)c(F)c1 (stereo not drawn)
numericResult: 99
--
molecule: Cc1nn(C)c(Nc2c(Cl)cc(F)cc2Br)c1-c1ccc(F)cc1F
numericResult: 100
--
molecule: COc1cc(F)c(-c2c(C)nn(C)c2Oc2c(F)cccc2F)c(F)c1
numericResult: 100
--
molecule: COc1cc(F)c(-c2c(C)nn(C)c2Oc2c(F)cc(Cl)cc2F)c(F)c1
numericResult: 100
--
molecule: Cc1nn(C)c(Nc2ccc(C#N)cc2Cl)c1-c1ccc(F)cc1Cl
numericResult: 98
--
molecule: Cc1nn(C)c(Nc2ccc(F)cc2Cl)c1-c1c(F)cc(C#N)cc1F
numericResult: 100
--
molecule: COc1ccc(Nc2c(-c3ccc(F)cc3F)c(C)nn2C)c(F)c1
numericResult: 80
--
molecule: Cc1nn(C)c(C(O)c2ccc(Cl)cc2F)c1-c1ccc(F)cc1Cl (racemic)
numericResult: 0
--
molecule: Cc1nn(C)c(Nc2ccc(Cl)cc2Cl)c1-c1ccc(F)cc1Cl
numericResult: 100
--
molecule: Cc1nn(C)c(C(O)c2c(F)cc(F)cc2F)c1-c1ccc(F)cc1Cl (racemic)
numericResult: 100
